Below: a set of entries, each annotated with reported MIC.
# Tested on: Haemophilus influenzae
# assay.protocol: In vitro antimicrobial activity against Haemophilus influenzae.
# Type: functional
Number in mg/L, nothing else.

CC[C@H]1OC(=O)C[C@@H](O)[C@H](C)[C@@H](O[C@@H]2O[C@H](C)[C@@H](O)[C@H](N(C)C)[C@H]2O)[C@@H](CCN2C(=O)c3ccccc3C2=O)C[C@@H](C)C(=O)/C=C/C(C)=C/[C@@H]1C: 128
CC[C@H]1OC(=O)C[C@@H](O)[C@H](C)[C@@H](O[C@@H]2O[C@H](C)[C@@H](O)[C@H](N(C)C)[C@H]2O)[C@@H](CCOS(=O)c2ccccc2)C[C@@H](C)C(=O)/C=C/C(C)=C/[C@@H]1CO[C@@H]1O[C@H](C)[C@@H](O)[C@@H](OC)[C@H]1OC (stereo partly drawn): 8
CC[C@H]1OC(=O)C[C@@H](O)[C@H](C)[C@@H](O[C@@H]2O[C@H](C)[C@@H](O[C@H]3C[C@@](C)(O)[C@@H](O)[C@H](C)O3)[C@H](N(C)C)[C@H]2O)[C@@H](CC=O)C[C@@H](C)C(=O)/C=C/C(C)=C/[C@@H]1C: 8

Would you kindly look at the next entry?
### Prompt Request - read-out MIC | tested on Haemophilus influenzae | compound CC[C@H]1OC(=O)C[C@@H](O)[C@H](C)[C@@H](O[C@@H]2O[C@H](C)[C@@H](O)[C@H](N(C)C)[C@H]2O)[C@@H](CCN2CCCCCCC2)C[C@@H](C)C(=O)/C=C/C(C)=C/[C@@H]1CO[C@@H]1O[C@H](C)[C@@H](O)[C@@H](O)[C@H]1OC
### Response 32

###

# System: Mus musculus
# assay.protocol: Peripheral plasma levels in mice after oral administration of 100 mg/kg dose for 1 hr
# Type: functional, organism-based
# Set-up: dose 100 mg/kg
property.name: log10 of Concentration (log10 of the value in µg/mL)
In plain terms, each number is the log10 of measured Concentration in µg/mL.

In the examples that follow, each entry is paired with its recorded log10 of Concentration.
CC[C@H]1OC(=O)C[C@@H](O)[C@H](C)[C@@H](O[C@@H]2O[C@H](C)[C@@H](O[C@H]3C[C@@](C)(O)[C@@H](O)[C@H](C)O3)[C@H](N(C)C)[C@H]2O)[C@@H](CCCl)C[C@@H](C)C(=O)/C=C/C(C)=C/[C@@H]1CO[C@@H]1O[C@H](C)[C@@H](O)[C@@H](OC)[C@H]1OC: 0.48
CC[C@H]1OC(=O)C[C@@H](O)[C@H](C)[C@@H](O[C@@H]2O[C@H](C)[C@@H](O)[C@H](N(C)C)[C@H]2O)[C@@H](CCOc2ccc(C(=O)c3ccccc3)cc2)C[C@@H](C)C(=O)/C=C/C(C)=C/[C@@H]1CO[C@@H]1O[C@H](C)[C@@H](O)[C@@H](OC)[C@H]1OC: 0.36
CC[C@H]1OC(=O)C[C@@H](O)[C@H](C)[C@@H](O[C@@H]2O[C@H](C)[C@@H](O)[C@H](N(C)C)[C@H]2O)[C@@H](CCN2C(=O)c3ccccc3C2=O)C[C@@H](C)C(=O)/C=C/C(C)=C/[C@@H]1CO[C@@H]1O[C@H](C)[C@@H](O)[C@@H](OC)[C@H]1OC: 0.32
CC[C@H]1C[C@@H](C)C(=O)/C=C/C(C)=C/[C@H](CO[C@@H]2O[C@H](C)[C@@H](O)[C@@H](OC)[C@H]2OC)[C@@H](CC)OC(=O)C[C@@H](O)[C@H](C)[C@H]1O[C@@H]1O[C@H](C)[C@@H](O)[C@H](N(C)C)[C@H]1O: 0.53
CC[C@H]1OC(=O)C[C@@H](O)[C@H](C)[C@@H](O[C@@H]2O[C@H](C)[C@@H](O)[C@H](N(C)C)[C@H]2O)[C@@H](CCOc2ccccc2)C[C@@H](C)C(=O)/C=C/C(C)=C/[C@@H]1CO[C@@H]1O[C@H](C)[C@@H](O)[C@@H](OC)[C@H]1OC: 1.12

Let us examine a further case.
### Prompt Can you look up the measured log10 of Concentration of CC[C@H]1OC(=O)C[C@@H](O)[C@H](C)[C@@H](O[C@@H]2O[C@H](C)[C@@H](O)[C@H](N(C)C)[C@H]2O)[C@@H](CCN2CCCCCCC2)C[C@@H](C)C(=O)/C=C/C(C)=C/[C@@H]1CO[C@@H]1O[C@H](C)[C@@H](O)[C@@H](OC)[C@H]1OC for me?
### Response -1.00

###

# System: Rattus norvegicus
# assay.protocol: Peripheral plasma levels in rats after oral administration of 100 mg/kg dose for 1 hr
# Assay type: functional, organism-based
# Design: dose 100 mg/kg
property.name: Concentration

For orientation, consider the following solved cases.
CC[C@H]1OC(=O)C[C@@H](O)[C@H](C)[C@@H](O[C@@H]2O[C@H](C)[C@@H](O)[C@H](N(C)C)[C@H]2O)[C@@H](CCOc2ccccc2)C[C@@H](C)C(=O)/C=C/C(C)=C/[C@@H]1CO[C@@H]1O[C@H](C)[C@@H](O)[C@@H](OC)[C@H]1OC: 3.4 µg/mL
CC[C@H]1OC(=O)[C@H](C)[C@@H](O[C@H]2C[C@@](C)(OC)[C@@H](O)[C@H](C)O2)[C@H](C)[C@@H](O[C@@H]2O[C@H](C)C[C@H](N(C)C)[C@H]2O)[C@](C)(O)C[C@@H](C)C(=O)[C@H](C)[C@@H](O)[C@]1(C)O [ERYTHROMYCIN]: 0.1 µg ml-1 ml-1
CC[C@H]1C[C@@H](C)C(=O)/C=C/C(C)=C/[C@H](CO[C@@H]2O[C@H](C)[C@@H](O)[C@@H](OC)[C@H]2OC)[C@@H](CC)OC(=O)C[C@@H](O)[C@H](C)[C@H]1O[C@@H]1O[C@H](C)[C@@H](O)[C@H](N(C)C)[C@H]1O: 7.2 µg/mL
CC[C@H]1OC(=O)C[C@@H](O)[C@H](C)[C@@H](O[C@@H]2O[C@H](C)[C@@H](O[C@H]3C[C@@](C)(O)[C@@H](O)[C@H](C)O3)[C@H](N(C)C)[C@H]2O)[C@@H](CCOc2ccccc2)C[C@@H](C)C(=O)/C=C/C(C)=C/[C@@H]1CO[C@@H]1O[C@H](C)[C@@H](O)[C@@H](OC)[C@H]1OC: 2 µg/mL

Here is another compound to look at.
### Prompt Name the reported Concentration value associated with the compound CC[C@H]1OC(=O)C[C@@H](O)[C@H](C)[C@@H](O[C@@H]2O[C@H](C)[C@@H](O)[C@H](N(C)C)[C@H]2O)[C@@H](CCF)C[C@@H](C)C(=O)/C=C/C(C)=C/[C@@H]1CO[C@@H]1O[C@H](C)[C@@H](O)[C@@H](OC)[C@H]1OC
### Response 0.1 µg/mL

###

# Tested on: Mus musculus
# assay.protocol: Peripheral plasma levels in mice after oral administration of 100 mg/kg dose for 1 hr
# Type: functional, organism-based
# Design: dose 100 mg/kg
Entries and their measured Concentration follow.

# annotated cases, reported Concentration shown
CC[C@H]1OC(=O)C[C@@H](O)[C@H](C)[C@@H](O[C@@H]2O[C@H](C)[C@@H](O[C@H]3C[C@@](C)(O)[C@@H](O)[C@H](C)O3)[C@H](N(C)C)[C@H]2O)[C@@H](CCN2C(=O)c3ccccc3C2=O)C[C@@H](C)C(=O)/C=C/C(C)=C/[C@@H]1CO[C@@H]1O[C@H](C)[C@@H](O)[C@@H](OC)[C@H]1OC: 6.9 µg/mL
CC[C@H]1OC(=O)C[C@@H](O)[C@H](C)[C@@H](O[C@@H]2O[C@H](C)[C@@H](O)[C@H](N(C)C)[C@H]2O)[C@@H](CCCl)C[C@@H](C)C(=O)/C=C/C(C)=C/[C@@H]1CO[C@@H]1O[C@H](C)[C@@H](O)[C@@H](OC)[C@H]1OC: 2.8 µg/mL

We now examine a further molecule.
### Prompt Looking for the measured Concentration of CC[C@H]1OC(=O)C[C@@H](O)[C@H](C)[C@@H](O[C@@H]2O[C@H](C)[C@@H](O[C@H]3C[C@@](C)(O)[C@@H](O)[C@H](C)O3)[C@H](N(C)C)[C@H]2O)[C@@H](CCOc2ccccc2)C[C@@H](C)C(=O)/C=C/C(C)=C/[C@@H]1CO[C@@H]1O[C@H](C)[C@@H](O)[C@@H](OC)[C@H]1OC , can you help?
### Response 6 µg/mL

###

# Test system: Mus musculus
# assay.protocol: Peripheral plasma levels in mice after oral administration of 50 mg/kg dose for 0.5 hr
# Assay type: functional, organism-based
# Parameters: dose 50 mg/kg
property.name: Concentration

Illustrative cases are given below, each with its answer.
CC[C@H]1C[C@@H](C)C(=O)/C=C/C(C)=C/[C@H](CO[C@@H]2O[C@H](C)[C@@H](O)[C@@H](OC)[C@H]2OC)[C@@H](CC)OC(=O)C[C@@H](O)[C@H](C)[C@H]1O[C@@H]1O[C@H](C)[C@@H](O)[C@H](N(C)C)[C@H]1O: 0.5 µg/mL
CC[C@H]1OC(=O)C[C@@H](O)[C@H](C)[C@@H](O[C@@H]2O[C@H](C)[C@@H](O)[C@H](N(C)C)[C@H]2O)[C@@H](CCOc2ccc(C(=O)c3ccccc3)cc2)C[C@@H](C)C(=O)/C=C/C(C)=C/[C@@H]1CO[C@@H]1O[C@H](C)[C@@H](O)[C@@H](OC)[C@H]1OC: 0.4 µg/mL
CC[C@H]1OC(=O)C[C@@H](O)[C@H](C)[C@@H](O[C@@H]2O[C@H](C)[C@@H](O)[C@H](N(C)C)[C@H]2O)[C@@H](CCCl)C[C@@H](C)C(=O)/C=C/C(C)=C/[C@@H]1CO[C@@H]1O[C@H](C)[C@@H](O)[C@@H](OC)[C@H]1OC: 0.4 µg/mL

### Prompt What value of Concentration has been recorded for this entry: CC[C@H]1OC(=O)C[C@@H](O)[C@H](C)[C@@H](O[C@@H]2O[C@H](C)[C@@H](O)[C@H](N(C)C)[C@H]2O)[C@@H](CCF)C[C@@H](C)C(=O)/C=C/C(C)=C/[C@@H]1CO[C@@H]1O[C@H](C)[C@@H](O)[C@@H](OC)[C@H]1OC
### Response < 0.1 µg/mL

### Prompt Repeat for the following compound: CC[C@H]1OC(=O)C[C@@H](O)[C@H](C)[C@@H](O[C@@H]2O[C@H](C)[C@@H](O[C@H]3C[C@@](C)(O)[C@@H](O)[C@H](C)O3)[C@H](N(C)C)[C@H]2O)[C@@H](CCCl)C[C@@H](C)C(=O)/C=C/C(C)=C/[C@@H]1CO[C@@H]1O[C@H](C)[C@@H](O)[C@@H](OC)[C@H]1OC
### Response 1.9 µg/mL

### Prompt Same thing, different compound: CC[C@H]1OC(=O)C[C@@H](O)[C@H](C)[C@@H](O[C@@H]2O[C@H](C)[C@@H](O)[C@H](N(C)C)[C@H]2O)[C@@H](CCOc2ccccc2)C[C@@H](C)C(=O)/C=C/C(C)=C/[C@@H]1CO[C@@H]1O[C@H](C)[C@@H](O)[C@@H](OC)[C@H]1OC
### Response 2.7 µg/mL
